molecular target: rat PGT (Rattus norvegicus (Rat), UniProt Q00910); test: [3H]PGE2 uptake inhibition in MDCK cells stably transfected with rat PGT (percent inhibition and IC50); assay type: cell-based; details: 5 μM compound; inhibition of [3H]PGE2 uptake
experimentalReadout: Inh (% of Ctl) 5 μM

{"molecule": "O=C(NCCOCCOCCNc1nc(Nc2ccc(O)cc2)nc(Nc2ccc(C(=O)NCc3ccc(Cl)c(Cl)c3)cc2)n1)c1ccccc1", "result": "91.6 % of Ctl"}

Report Inh (% of Ctl) 5 μM for O=C(NCCOCCOCCNc1nc(Nc2ccc(O)cc2)nc(Nc2ccc(C(=O)NCc3ccccc3)cc2)n1)c1ccccc1 [compound 83] please. 42.0 % of Ctl

---

target: rat PGT (Rattus norvegicus (Rat), UniProt Q00910); assay: [3H]PGE2 uptake inhibition in MDCK cells stably transfected with rat PGT (percent inhibition and IC50); type: cell-based; settings: 10 μM compound; inhibition of [3H]PGE2 uptake
Reported Inh (% of Ctl) 10 μM by item:

Below: 2 molecules and their reported Inh (% of Ctl) 10 μM.
{"molecule": "O=S(=O)(NCCOCCOCCNc1nc(Nc2ccccc2)nc(Nc2ccc(O)cc2)n1)c1ccccc1", "targetUnderTest": "rat PGT (Rattus norvegicus (Rat), UniProt Q00910)", "Inh (% of Ctl) 10 μM": "63.0 % of Ctl"}
{"molecule": "O=C(NCCOCCOCCNc1nc(Nc2ccccc2)nc(Nc2ccc(O)cc2)n1)c1ccccc1", "targetUnderTest": "rat PGT (Rattus norvegicus (Rat), UniProt Q00910)", "Inh (% of Ctl) 10 μM": "81.5 % of Ctl"}

Would you kindly look at the next entry?
Dear colleague, I am looking for the recorded Inh (% of Ctl) 10 μM of the following molecule: CCCCCCNC(=O)c1ccc(Nc2nc(NCCOCCOCCNC(=O)c3ccccc3)nc(Nc3ccc4[nH]ncc4c3)n2)cc1 90.0 % of Ctl

---

// reported Inh (% of Ctl) 1 μM for each item listed
Target: rat PGT (Rattus norvegicus (Rat), UniProt Q00910)
Experiment: [3H]PGE2 uptake inhibition in MDCK cells stably transfected with rat PGT (percent inhibition and IC50)
Type: cell-based
Settings: 1 μM compound; inhibition of [3H]PGE2 uptake
Method: MDCK cells stably transfected with rat PGT (Endo et al., 2002) were seeded at 15-20% confluence on 24-well plates. The day on which the cells were seeded was considered day 1. PGE2 uptake experiments were conducted on day 4. All of the PGE2 uptake experiments were conducted at room temperature. […] 1.5 mL of scintillation solution was added to each well, and intracellular [^3H]PGE2 was counted by MicroBeta Counter. […] IC50 was calculated by fitting an equation of y=m1−m1*(m0/(m2+m0)).

Record excerpt, results attached:
{"substanceSmiles": "O=C(NCCOCCOCCNc1nc(Nc2ccc(O)cc2)nc(Nc2ccc(C(=O)NCc3cc(F)cc(F)c3)cc2)n1)c1ccccc1", "Inh (% of Ctl) 1 μM": "81.7 % of Ctl"}
{"substanceSmiles": "O=C(NCCCCNc1nc(Nc2ccccc2)nc(Nc2ccc(O)cc2)n1)c1ccccc1", "Inh (% of Ctl) 1 μM": "5.7 % of Ctl"}
{"substanceSmiles": "COC(=O)Cc1ccc(Nc2nc(NCCOCCOCCNC(=O)c3ccccc3)nc(Nc3ccccc3)n2)cc1", "Inh (% of Ctl) 1 μM": "7.2 % of Ctl"}
{"substanceSmiles": "NCCOCCOCCNc1nc(Nc2ccccc2)nc(Nc2ccc(O)cc2)n1", "Inh (% of Ctl) 1 μM": "5.0 % of Ctl"}
{"substanceSmiles": "CCCCCCNc1nc(Nc2ccccc2)nc(Nc2ccc(O)cc2)n1", "Inh (% of Ctl) 1 μM": "12.7 % of Ctl"}
{"substanceSmiles": "O=C(NCCOCCOCCNc1nc(Nc2ccc(O)cc2)nc(Nc2ccc(C(=O)NCc3c(F)cccc3F)cc2)n1)c1ccccc1", "Inh (% of Ctl) 1 μM": "82.2 % of Ctl"}

Query compound follows.
May I ask what Inh (% of Ctl) 1 μM has been recorded for N[C@H](Cc1ccccc1)C(=O)NCCOCCNc1nc(Nc2ccc(O)cc2)nc(Nc2ccc(C(=O)NCc3ccccc3)cc2)n1 ? 19.4 % of Ctl

---

Catalogue of Inh (% of Ctl) 0.5 μM values
target: rat PGT (Rattus norvegicus (Rat)); assay: [3H]PGE2 uptake inhibition in MDCK cells stably transfected with rat PGT (percent inhibition and IC50); assay type: cell-based; conditions: 0.5 μM compound; inhibition of [3H]PGE2 uptake

A selection of reference data follows.
{"substanceSmiles": "CC(C)(NC(=O)c1ccc(Nc2nc(NCCOCCOCCNC(=O)c3ccccc3)nc(Nc3ccc(O)cc3)n2)cc1)c1ccccc1", "targetUnderTest": "rat PGT (Rattus norvegicus (Rat))", "Inh (% of Ctl) 0.5 μM": "10.9 % of Ctl"}
{"substanceSmiles": "COCCOCCOCCNc1nc(NCCOCCOCCNC(=O)c2ccccc2)nc(Nc2ccc(OCc3ccccc3)cc2)n1", "targetUnderTest": "rat PGT (Rattus norvegicus (Rat))", "Inh (% of Ctl) 0.5 μM": "4.8 % of Ctl"}

Record O=C(NCc1ccccc1)c1ccc(Nc2nc(NCCOCCNS(=O)(=O)c3ccccc3)nc(Nc3ccc(O)cc3)n2)cc1 : what is its Inh (% of Ctl) 0.5 μM with rat PGT (Rattus norvegicus (Rat))? 22.5 % of Ctl

Entry O=C(NCCOCCNc1nc(Nc2ccc(O)cc2)nc(Nc2ccc(C(=O)NCc3ccccc3)cc2)n1)c1ccccc1 , system rat PGT (Rattus norvegicus (Rat)): what Inh (% of Ctl) 0.5 μM was measured? 90.7 % of Ctl

---

Listed compounds paired with reported Inh (% of Ctl) 2.5 μM
molecular target: rat PGT (Rattus norvegicus (Rat)); experiment: [3H]PGE2 uptake inhibition in MDCK cells stably transfected with rat PGT (percent inhibition and IC50); assay type: cell-based; settings: 2.5 μM compound; inhibition of [3H]PGE2 uptake

Here are 5 compounds together with their reported answers.
{"substanceSmiles": "COC(=O)[C@@H](NC(=O)c1ccc(Nc2nc(NCCOCCOCCNC(=O)c3ccccc3)nc(Nc3ccc(O)cc3)n2)cc1)c1ccccc1", "targetUnderTest": "rat PGT (Rattus norvegicus (Rat))", "Inh (% of Ctl) 2.5 μM": "56.9 % of Ctl"}
{"substanceSmiles": "O=C(NCCOCCOCCNc1nc(Nc2ccc(O)cc2)nc(Nc2ccc(C(=O)NCc3ccc(Cl)c(Cl)c3)cc2)n1)c1ccccc1", "targetUnderTest": "rat PGT (Rattus norvegicus (Rat))", "Inh (% of Ctl) 2.5 μM": "87.8 % of Ctl"}
{"substanceSmiles": "COc1cc(Nc2nc(NCCOCCOCCNC(=O)c3ccccc3)nc(Nc3ccc(O)cc3)n2)ccc1C(=O)NCc1ccccc1", "targetUnderTest": "rat PGT (Rattus norvegicus (Rat))", "Inh (% of Ctl) 2.5 μM": "16.2 % of Ctl"}
{"substanceSmiles": "O=C(NCCOCCOCCNc1nc(Nc2ccc(O)cc2)nc(Nc2ccc(C(=O)NCc3ccccc3)cc2)n1)c1ccccc1", "targetUnderTest": "rat PGT (Rattus norvegicus (Rat))", "Inh (% of Ctl) 2.5 μM": "10.4 % of Ctl"}
{"substanceSmiles": "O=C(NCCOCCOCCNc1nc(Nc2ccc(O)cc2)nc(Nc2ccc(C(=O)NCc3ccccc3F)cc2)n1)c1ccccc1", "targetUnderTest": "rat PGT (Rattus norvegicus (Rat))", "Inh (% of Ctl) 2.5 μM": "78.3 % of Ctl"}

Please report the recorded Inh (% of Ctl) 2.5 μM for Cc1ccc(CNC(=O)c2ccc(Nc3nc(NCCOCCOCCNC(=O)c4ccccc4)nc(Nc4ccc(O)cc4)n3)cc2)cc1 . 65.7 % of Ctl

Could you share which Inh (% of Ctl) 2.5 μM value was measured for O=C(NCCOCCOCCNc1nc(Nc2ccc(O)cc2)nc(Nc2ccc(C(=O)N[C@@H](C(=O)O)c3ccccc3)cc2)n1)c1ccccc1 ? 29.2 % of Ctl

Given the entry O=C(NCCOCCOCCNc1nc(Nc2ccc(O)cc2)nc(Nc2ccc(C(=O)NCc3cccc(C(F)(F)F)c3)cc2)n1)c1ccccc1 , report its measured Inh (% of Ctl) 2.5 μM. 71.0 % of Ctl

Item CCCCCCCC(=O)c1ccc(Nc2nc(NCCOCCOCCNC(=O)c3ccccc3)nc(Nc3ccc(O)cc3)n2)cc1 has what recorded Inh (% of Ctl) 2.5 μM? 35.9 % of Ctl

# input compound: O=C(NCCOCCOCCNc1nc(Nc2ccc(O)cc2)nc(Nc2ccc(C(=O)Nc3ccccc3)cc2)n1)c1ccccc1 ; wanted: its Inh (% of Ctl) 2.5 μM 62.2 % of Ctl

// Inh (% of Ctl) 2.5 μM lookup, key: O=C(NCCOCCOCCNc1nc(Nc2ccc(O)cc2)nc(Nc2ccc(C(=O)NCc3cccc(F)c3)cc2)n1)c1ccccc1 81 % of Ctl
